Recorded values, source the supplement of paper PMC11196671.

Give PET hydrolysis product formed for every item shown.
Assay: PET hydrolysis product formed (TPA+MHET+BHET, UV-Vis) per mg enzyme (mmol/mg enzyme); higher = more PET depolymerisation activity; extreme values may be limits of the assay
Conditions: PET substrate: aFilm; 70 °C; pH 9.5; 2 h

-- ask // PET hydrolysis product formed lookup, key: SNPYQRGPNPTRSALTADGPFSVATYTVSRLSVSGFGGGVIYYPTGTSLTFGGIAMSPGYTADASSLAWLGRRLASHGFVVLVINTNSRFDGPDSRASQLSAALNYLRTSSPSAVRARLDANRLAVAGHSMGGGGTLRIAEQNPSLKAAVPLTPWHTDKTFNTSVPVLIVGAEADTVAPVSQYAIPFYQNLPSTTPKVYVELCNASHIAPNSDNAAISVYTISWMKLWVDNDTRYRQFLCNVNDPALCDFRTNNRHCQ [LCC-A2]
-- reply 0.423

-- ask // PET hydrolysis product formed lookup, key: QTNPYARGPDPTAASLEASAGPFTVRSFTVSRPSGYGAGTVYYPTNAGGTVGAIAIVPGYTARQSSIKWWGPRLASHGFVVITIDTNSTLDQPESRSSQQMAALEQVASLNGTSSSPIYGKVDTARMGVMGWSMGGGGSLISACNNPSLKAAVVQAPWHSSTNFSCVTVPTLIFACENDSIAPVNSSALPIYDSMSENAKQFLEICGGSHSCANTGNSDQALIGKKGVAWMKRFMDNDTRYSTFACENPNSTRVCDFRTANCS [Z1-PETase]
-- reply 0.00338

-- ask // PET hydrolysis product formed lookup, key: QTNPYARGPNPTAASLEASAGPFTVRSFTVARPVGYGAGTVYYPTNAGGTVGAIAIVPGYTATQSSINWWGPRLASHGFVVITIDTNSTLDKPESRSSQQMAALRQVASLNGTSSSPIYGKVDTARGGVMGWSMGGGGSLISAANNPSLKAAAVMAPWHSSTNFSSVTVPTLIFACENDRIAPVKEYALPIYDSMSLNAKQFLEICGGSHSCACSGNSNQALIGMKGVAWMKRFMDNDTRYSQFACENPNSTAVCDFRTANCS [HotPETase]
-- reply 0.092

---

Give PET hydrolysis product formed for every item shown.
Assay: PET hydrolysis product formed (TPA+MHET+BHET, UV-Vis) per mg enzyme (mmol/mg enzyme); higher = more PET depolymerisation activity; extreme values may be limits of the assay
Settings: PET substrate: cryPow; 70 °C; pH 4.5; 24 h

-- ask // PET hydrolysis product formed lookup, key: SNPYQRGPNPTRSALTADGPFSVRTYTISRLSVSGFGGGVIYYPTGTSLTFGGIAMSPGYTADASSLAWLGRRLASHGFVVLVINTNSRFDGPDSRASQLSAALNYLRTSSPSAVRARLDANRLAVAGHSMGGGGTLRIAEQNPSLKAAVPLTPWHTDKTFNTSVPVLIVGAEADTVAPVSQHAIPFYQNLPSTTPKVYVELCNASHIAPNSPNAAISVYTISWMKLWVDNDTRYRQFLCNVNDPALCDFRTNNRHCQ [LCC-ICCG RIP]
-- reply 0

-- ask // PET hydrolysis product formed lookup, key: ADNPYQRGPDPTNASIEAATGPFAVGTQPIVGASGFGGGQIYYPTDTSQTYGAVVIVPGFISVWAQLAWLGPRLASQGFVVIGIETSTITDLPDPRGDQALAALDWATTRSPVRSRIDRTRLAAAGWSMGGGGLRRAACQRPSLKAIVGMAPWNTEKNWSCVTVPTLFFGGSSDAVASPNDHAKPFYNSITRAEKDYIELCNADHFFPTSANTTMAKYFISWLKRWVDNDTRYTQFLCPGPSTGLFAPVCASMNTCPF [CaPETaseM9]
-- reply 0

-- ask // PET hydrolysis product formed lookup, key: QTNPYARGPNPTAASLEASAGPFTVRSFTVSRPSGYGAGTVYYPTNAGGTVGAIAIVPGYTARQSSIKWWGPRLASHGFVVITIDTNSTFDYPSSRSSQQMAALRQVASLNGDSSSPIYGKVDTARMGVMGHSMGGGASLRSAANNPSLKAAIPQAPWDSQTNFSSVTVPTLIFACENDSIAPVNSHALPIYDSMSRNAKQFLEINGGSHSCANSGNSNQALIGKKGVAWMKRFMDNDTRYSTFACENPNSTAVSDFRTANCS [DuraPETase]
-- reply 0

---

Assay: terephthalic acid (TPA) released, HPLC; higher = more TPA released; extreme values may be limits of the assay
Details: PET substrate: aFilm; 70 °C; pH 8.5; 24 h
Give terephthalic acid for every item shown.
Respond with the figure and its unit, in that order.

-- ask // terephthalic acid lookup, key: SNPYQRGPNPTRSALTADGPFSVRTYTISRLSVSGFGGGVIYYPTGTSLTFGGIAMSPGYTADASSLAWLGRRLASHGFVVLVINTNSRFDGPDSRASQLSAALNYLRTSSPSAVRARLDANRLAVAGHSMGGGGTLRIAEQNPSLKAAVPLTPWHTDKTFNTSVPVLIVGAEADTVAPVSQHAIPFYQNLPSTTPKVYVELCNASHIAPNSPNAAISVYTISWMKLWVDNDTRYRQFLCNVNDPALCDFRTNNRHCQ [LCC-ICCG RIP]
-- reply 0.224 mM

-- ask // terephthalic acid lookup, key: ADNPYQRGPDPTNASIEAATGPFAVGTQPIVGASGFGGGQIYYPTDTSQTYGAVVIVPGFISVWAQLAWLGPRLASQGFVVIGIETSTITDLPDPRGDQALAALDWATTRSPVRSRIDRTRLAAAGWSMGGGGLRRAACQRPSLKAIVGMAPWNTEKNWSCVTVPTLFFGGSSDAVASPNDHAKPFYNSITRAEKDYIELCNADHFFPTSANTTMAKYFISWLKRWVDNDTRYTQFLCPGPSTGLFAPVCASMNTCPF [CaPETaseM9]
-- reply 0 mM

-- ask // terephthalic acid lookup, key: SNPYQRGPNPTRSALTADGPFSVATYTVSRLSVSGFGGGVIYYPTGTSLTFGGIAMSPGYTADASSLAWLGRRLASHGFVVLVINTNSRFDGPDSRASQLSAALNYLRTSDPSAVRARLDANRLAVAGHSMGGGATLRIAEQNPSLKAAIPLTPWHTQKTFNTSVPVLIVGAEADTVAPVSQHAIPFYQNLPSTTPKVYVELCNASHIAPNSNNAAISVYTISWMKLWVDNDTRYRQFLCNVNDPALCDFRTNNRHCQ [LCC-ICCG DAQI]
-- reply 0.205 mM

-- ask // terephthalic acid lookup, key: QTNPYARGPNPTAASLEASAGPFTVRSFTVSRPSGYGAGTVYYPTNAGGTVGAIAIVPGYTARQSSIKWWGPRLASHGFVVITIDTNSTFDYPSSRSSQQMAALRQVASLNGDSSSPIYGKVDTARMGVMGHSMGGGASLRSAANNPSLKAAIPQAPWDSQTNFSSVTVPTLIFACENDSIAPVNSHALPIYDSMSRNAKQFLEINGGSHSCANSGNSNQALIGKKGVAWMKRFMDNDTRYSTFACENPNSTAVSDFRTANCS [DuraPETase]
-- reply 0.0158 mM

-- ask // terephthalic acid lookup, key: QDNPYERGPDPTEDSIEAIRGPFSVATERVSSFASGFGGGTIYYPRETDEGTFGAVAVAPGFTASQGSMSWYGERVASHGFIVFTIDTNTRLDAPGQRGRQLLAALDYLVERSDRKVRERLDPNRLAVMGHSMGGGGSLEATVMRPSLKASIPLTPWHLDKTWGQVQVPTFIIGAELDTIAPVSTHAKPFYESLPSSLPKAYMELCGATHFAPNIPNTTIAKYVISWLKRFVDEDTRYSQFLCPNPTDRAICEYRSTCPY [Cut190*SS]
-- reply 0 mM

-- ask // terephthalic acid lookup, key: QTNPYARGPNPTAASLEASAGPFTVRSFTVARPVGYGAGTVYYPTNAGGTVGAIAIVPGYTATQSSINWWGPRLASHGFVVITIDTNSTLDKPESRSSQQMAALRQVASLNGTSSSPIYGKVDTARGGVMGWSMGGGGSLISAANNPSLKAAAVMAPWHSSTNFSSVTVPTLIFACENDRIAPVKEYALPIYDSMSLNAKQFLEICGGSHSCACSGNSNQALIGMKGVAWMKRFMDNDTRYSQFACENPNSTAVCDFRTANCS [HotPETase]
-- reply 0.0776 mM

-- ask // terephthalic acid lookup, key: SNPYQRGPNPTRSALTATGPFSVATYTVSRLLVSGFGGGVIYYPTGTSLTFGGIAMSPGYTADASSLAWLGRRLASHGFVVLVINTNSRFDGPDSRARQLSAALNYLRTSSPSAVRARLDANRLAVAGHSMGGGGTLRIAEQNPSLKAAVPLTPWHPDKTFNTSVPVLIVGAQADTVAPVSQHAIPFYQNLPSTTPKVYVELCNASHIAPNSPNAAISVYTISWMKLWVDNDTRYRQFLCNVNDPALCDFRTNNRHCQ [LCC-ICCG I6M]
-- reply 0.209 mM

---

Test: PET hydrolysis product formed (TPA+MHET+BHET, UV-Vis) per mg enzyme (mmol/mg enzyme); higher = more PET depolymerisation activity; extreme values may be limits of the assay
Conditions: PET substrate: cryPow; 60 °C; pH 4.5; 2 h
MEASUREMENT TYPE: PET hydrolysis product formed
Please reply with the value in numeric form only.

-- ask // PET hydrolysis product formed lookup, key: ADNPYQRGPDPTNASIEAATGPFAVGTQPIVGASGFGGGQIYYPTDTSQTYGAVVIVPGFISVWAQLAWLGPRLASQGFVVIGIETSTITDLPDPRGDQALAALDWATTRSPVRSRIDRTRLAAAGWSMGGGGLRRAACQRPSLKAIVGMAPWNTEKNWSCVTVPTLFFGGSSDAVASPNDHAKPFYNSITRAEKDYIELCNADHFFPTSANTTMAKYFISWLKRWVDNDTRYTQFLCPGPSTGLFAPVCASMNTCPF [CaPETaseM9]
-- reply 0.0116

-- ask // PET hydrolysis product formed lookup, key: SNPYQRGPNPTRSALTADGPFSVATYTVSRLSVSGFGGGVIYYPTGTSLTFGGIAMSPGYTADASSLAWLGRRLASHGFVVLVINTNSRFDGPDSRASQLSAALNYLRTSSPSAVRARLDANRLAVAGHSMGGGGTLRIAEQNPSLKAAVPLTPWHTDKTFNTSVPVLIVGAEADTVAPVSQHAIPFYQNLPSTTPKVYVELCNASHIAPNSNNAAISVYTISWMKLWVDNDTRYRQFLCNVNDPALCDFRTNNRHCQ [LCC-ICCG]
-- reply 0

-- ask // PET hydrolysis product formed lookup, key: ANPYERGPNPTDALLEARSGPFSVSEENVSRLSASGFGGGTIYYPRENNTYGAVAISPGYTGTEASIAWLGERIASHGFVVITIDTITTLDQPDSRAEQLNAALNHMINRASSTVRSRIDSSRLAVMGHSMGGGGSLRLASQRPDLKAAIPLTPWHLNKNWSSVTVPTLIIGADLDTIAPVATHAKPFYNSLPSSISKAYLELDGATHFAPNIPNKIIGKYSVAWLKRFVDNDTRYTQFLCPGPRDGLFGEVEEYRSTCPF [TfCut2]
-- reply 0
